Consider the following compounds; for each one, report its SODIUM.
Organism: Rattus norvegicus
PROTOCOL_NOTES: DrugMatrix - Regimen: Daily Repeat
Format: toxicity, organism-based, Sprague-Dawley
Design: regimen Daily Repeat, gender Male, age 6-8 weeks
ASSAY_CONTEXT: in vivo, po, 0 mg/kg, 72 h, tissue Plasma, route oral GAVAGE, dose level Control, time 3 day, […]
Kindly answer with a numeric value in MEQ/L, unit omitted.

q: I would be grateful if you could share the reported SODIUM for COc1ccc2[nH]c([S+]([O-])Cc3ncc(C)c(OC)c3C)nc2c1 (stereo unspecified) .
a: 140.53

q: I would be grateful if you could share the reported SODIUM for CC/C(=C(/CC)c1ccc(O)cc1)c1ccc(O)cc1 .
a: 142.92

q: I would be grateful if you could share the reported SODIUM for CCCCCCCCc1ccc(O)cc1 .
a: 143.3

q: I would be grateful if you could share the reported SODIUM for CC(=O)Nc1cccc(O)c1 .
a: 142.9

q: I would be grateful if you could share the reported SODIUM for COCCOC(=O)C1=C(C)NC(C)=C(C(=O)OC(C)C)C1c1cccc([N+](=O)[O-])c1 (stereo unspecified) .
a: 143.2

q: I would be grateful if you could share the reported SODIUM for Clc1ccc(Cl)cc1 .
a: 145

q: I would be grateful if you could share the reported SODIUM for S=C=Nc1cccc2ccccc12 [1-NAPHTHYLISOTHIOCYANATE] .
a: 142.05

q: I would be grateful if you could share the reported SODIUM for CC(C)(Oc1ccc(C2CCCc3ccccc32)cc1)C(=O)O (stereo unspecified) .
a: 140.93

q: I would be grateful if you could share the reported SODIUM for O=C(O)Cc1ccccc1Nc1c(Cl)cccc1Cl .
a: 143.57

q: I would be grateful if you could share the reported SODIUM for CC(C)Cc1ccc(C(C)C(=O)O)cc1 (stereo unspecified) .
a: 142.83

q: I would be grateful if you could share the reported SODIUM for CCOC(=O)C1=C(C)NC(C)=C(C(=O)OC)C1c1cccc([N+](=O)[O-])c1 (stereo unspecified) .
a: 143.2
